Attribute: Ki
# target: Human Recombinant Matriptase 2 (Homo sapiens, UniProt Q8IU80)
# Construct: made in house
# Sequence (Q8IU80 whole entry): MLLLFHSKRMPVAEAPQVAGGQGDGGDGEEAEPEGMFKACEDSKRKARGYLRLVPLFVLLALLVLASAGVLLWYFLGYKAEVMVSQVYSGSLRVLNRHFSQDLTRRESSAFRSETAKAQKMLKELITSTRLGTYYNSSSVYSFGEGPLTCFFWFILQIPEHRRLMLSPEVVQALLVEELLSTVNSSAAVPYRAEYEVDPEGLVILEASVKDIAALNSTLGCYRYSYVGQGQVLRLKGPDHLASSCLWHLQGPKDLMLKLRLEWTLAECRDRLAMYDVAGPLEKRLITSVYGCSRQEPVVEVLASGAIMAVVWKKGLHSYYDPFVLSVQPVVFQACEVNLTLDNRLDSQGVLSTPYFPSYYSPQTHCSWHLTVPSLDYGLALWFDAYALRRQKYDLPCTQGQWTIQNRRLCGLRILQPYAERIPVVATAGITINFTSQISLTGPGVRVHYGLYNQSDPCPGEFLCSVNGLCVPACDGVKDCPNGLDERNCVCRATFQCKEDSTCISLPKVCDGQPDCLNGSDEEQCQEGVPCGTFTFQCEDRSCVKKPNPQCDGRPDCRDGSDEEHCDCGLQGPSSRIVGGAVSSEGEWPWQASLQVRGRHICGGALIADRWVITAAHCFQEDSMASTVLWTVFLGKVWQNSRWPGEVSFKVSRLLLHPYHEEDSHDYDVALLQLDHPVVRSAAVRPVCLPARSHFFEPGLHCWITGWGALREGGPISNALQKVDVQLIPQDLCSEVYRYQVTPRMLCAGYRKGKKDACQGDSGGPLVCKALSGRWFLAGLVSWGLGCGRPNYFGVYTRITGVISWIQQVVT
# protocol.summary: Matriptase 2 inhibition, fluorescence based assay (Method I)
# Assay type: biochemical
# protocol.conditions: Table B; Human Recombinant Matriptase 2, 3.5 nM enzyme, 62 μM substrate, 30 mins preincubation; read-out: Mean Ki

As a guide, the following entries are already answered.
CN1CC(CCOC(=O)c2cc3ccc(CN)nc3n2Cc2cc(NS(=O)(=O)Cc3ccccc3)cc3ccccc23)CC1=O (stereo not drawn) [Compound 2.7] :: ≤ 100 nM
CN1CCC(CCOC(=O)c2cc3ccc(CN)nc3n2Cc2cc(NS(=O)(=O)Cc3ccsc3)cc3c2CCCC3)CC1=O (stereo not drawn) [Compound 2.2] :: 100 to 500 nM
NCc1ccc2cc(C(=O)OCC3CCNC(=O)C3)n(Cc3cc(NS(=O)(=O)Cc4ccsc4)cc4c3CCCC4)c2n1 (stereo not drawn) [Compound 2.11] :: ≤ 100 nM

Bench note, Human Recombinant Matriptase 2 (Homo sapiens, UniProt Q8IU80): CB1C=Cc2c(Cn3c(C(=O)OCC4CCN(C)CC4)cc4ccc(CN)nc43)cc(Br)cc2N1 [Compound 2.31] , Ki reads 500 to 3000 nM

Bench note, Human Recombinant Matriptase 2 (Homo sapiens, UniProt Q8IU80): CN(C)C12CC(COC(=O)c3cc4ccc(CN)nc4n3Cc3cc(NS(=O)(=O)Cc4ccccc4)cc4ccccc34)(C1)C2 [Compound 2.40] , Ki reads ≤ 100 nM

Bench note, Human Recombinant Matriptase 2 (Homo sapiens, UniProt Q8IU80): CN1CCC(COC(=O)c2cc3ccc(CN)nc3n2Cc2cccc(NS(=O)(=O)Cc3ccccc3)c2)CC1 [Compound 2.48] , Ki reads 100 to 500 nM

Bench note, Human Recombinant Matriptase 2 (Homo sapiens, UniProt Q8IU80): CN1CCC(COC(=O)c2cc3ccc(CN)nc3n2Cc2cc(NS(=O)(=O)Cc3ccccc3)cc3ccccc23)CCC1=O (stereo not drawn) [Compound 2.18] , Ki reads ≤ 100 nM

Bench note, Human Recombinant Matriptase 2 (Homo sapiens, UniProt Q8IU80): CN1CCC(COC(=O)c2cc3ccc(CN)nc3n2Cc2cc(NS(=O)(=O)Cc3ccsc3)cc3c2CCCC3)CC1=O (stereo not drawn) [Compound 2.22] , Ki reads ≤ 100 nM

Bench note, Human Recombinant Matriptase 2 (Homo sapiens, UniProt Q8IU80): CN1CCC(COC(=O)c2cc3ccc(CN)nc3n2Cc2cc(NS(=O)(=O)Cc3ccccc3)c3ccccc3c2)CC1 [Compound 2.16] , Ki reads 100 to 500 nM
